Data origin, for the record: BindingDB's records for doi:10.1124/mol.58.6.1310

value kind: pKi
// pKi: -log10(molar conc.)

## Task Write down measured pKi (Glutamate receptor 3 (Rattus norvegicus, UniProt P19492)) for this compound. N#Cc1cccc(/C=C/c2nc3ccc(F)cc3c(=O)n2-c2ccccc2Cl)n1
## Result 8.52

## Task Fill: pKi (Glutamate receptor 3 (Rattus norvegicus, UniProt P19492)) for this compound Cc1ncccc1-n1c(/C=C/C2CSC(C)N2)nc2ccccc2c1=O (stereo not drawn) [CP-471236]
## Result 7.24
